Below: a set of entries, each annotated with reported GI50.
# Tested on: SNB-78
# assay.notes: NCI tumour cell line growth inhibition, 48 h
The source made the active and inactive calls. Cut-off read from the data, not from the text of the source: active = GI50 up to about 1.1 µM and inactive = higher.

Examples with answers:
Qu. Dear colleague, I am looking for the recorded GI50 of the following molecule: `COCOc1ccc(Cn2c(=O)n(C)c(=O)c3c2ncn3C)cc1[N+](=O)[O-]`
Ans. > 100 µM (inactive)

Qu. Do the same for `COc1cc[n+](C)cc1` please
Ans. > 100 µM (inactive)

Others:
Qu. Dear colleague, I am looking for the recorded GI50 of the following molecule: CC1CC(C)C2OC2(C)C[C@H](C)C(=O)NC(C)C(=O)N(C)[C@H](Cc2c(Br)[nH]c3ccccc23)C(=O)N[C@@H](c2ccc(O)cc2)CC(=O)O1 (stereo partly drawn)
Ans. 0.309 µM (active)

Qu. Do the same for `c1ccc(-c2nnc3nn4c(-c5ccccc5)cnnc4c3c2-c2ccccc2)cc1` please
Ans. 31.7 µM (inactive)

Qu. Do the same for `O=C1OC(c2ccccc2)=N/C1=C\c1cc(Cl)ccc1Cl` please
Ans. 44.5 µM (inactive)

Qu. Do the same for CC(=O)OC1COC(n2c(=S)n(-c3ccccc3)c(=O)c3ccccc32)C(OC(C)=O)C1OC(C)=O (stereo not drawn) please
Ans. > 100 µM (inactive)

Qu. Do the same for C[C@H]1COC2(c3ccccc3)CCC(=O)N12 (stereo partly drawn) please
Ans. > 100 µM (inactive)

Qu. Do the same for CCC[S+]([O-])c1nc(COC(=O)NC)c(COC(=O)NC)n1C (stereo not drawn) please
Ans. > 100 µM (inactive)

Qu. Do the same for `S=P(N1CC1)(N1CC1)N1CC1` please
Ans. 385 µM (inactive)

Qu. Do the same for `Cc1c2ccncc2c(C)c2c1[nH]c1ccc(OC(C)C)cc12` please
Ans. 2.89 µM (inactive)

Qu. Do the same for `Cc1ccc(S(=O)(=O)NC(=O)C2(Br)S(=O)(=O)OCCOS2(=O)=O)cc1` please
Ans. > 100 µM (inactive)

Qu. Do the same for `Cc1ccc(C(=O)Nc2ccc(S(=O)(=O)O)c3cc(S(=O)(=O)O)cc(S(=O)(=O)O)c23)cc1NC(=O)c1cccc(NC(=O)Nc2cccc(C(=O)Nc3cc(C(=O)Nc4ccc(S(=O)(=O)O)c5cc(S(=O)(=O)O)cc(S(=O)(=O)O)c45)ccc3C)c2)c1` please
Ans. > 71.3 µM (inactive)

Qu. Do the same for CC(=O)NC(CCCNC(=O)OCc1ccccc1)C(=O)O (stereo not drawn) please
Ans. 49.5 µM (inactive)

* * *

# Tested on: K562
# assay.notes: NCI tumour cell line growth inhibition, 48 h
Activity calls are given as the source filed them. No stated cut-off is given here; in the data, active = GI50 up to about 1.1 µM and inactive = higher.
Can you answer with just one of these options? active, inactive

Sample answers from the record:
Qu. What is the recorded call for this compound in the test? `Cc1c2ccncc2c(C)c2c1[nH]c1ccc(OC(C)C)cc12`
Ans. inactive

Qu. Do the same for `CS(=O)(=O)N(CCC#N)c1ccc(C=O)cc1` please
Ans. inactive

Qu. Do the same for `CC(C)CCC[C@@H](C)[C@H]1CC[C@H]2[C@@H]3CC[C@H]4C[C@H](N)CC[C@]4(C)[C@H]3CC[C@]12C` please
Ans. inactive

Qu. Do the same for CCOc1cc(C2CC(c3ccc(NS(=O)(=O)c4cc([N+](=O)[O-])ccc4C)cc3)=NN2c2ccc([N+](=O)[O-])cc2[N+](=O)[O-])ccc1O (centres undefined) please
Ans. inactive

Qu. Do the same for `CC1=Nc2c(C#N)ncn2N=C(C)C1` please
Ans. inactive

Qu. Do the same for `O=S(=O)(N/C(=N\O)Nc1ccc(Cl)cc1)c1ccccc1` please
Ans. inactive

Qu. Do the same for `CCOC(=O)Cc1nc2ccc3c(c2nc1O)C(=O)c1ccccc1C3=O` please
Ans. inactive

Qu. Do the same for Cc1nn(C(=O)c2ccncc2)c2c1C(c1ccc(Cl)cc1)SC(=N)N2 (centres undefined) please
Ans. inactive

Qu. Do the same for `S=C(N/N=C\C(=N/NC(=S)N1CCCCC1)c1ccccc1)N1CCCCC1` please
Ans. inactive

Qu. Do the same for `FC(F)(F)c1ccc(/N=C/C=C(/Nc2ccc(C(F)(F)F)cc2)c2ccc(Cl)cc2)cc1` please
Ans. inactive

Others:
Qu. What is the recorded call for this compound in the test? CCC(C)SC1SCC2C(=O)N(C)C3(CC3C)C(=O)OCC(NC(=O)c3nc4ccccc4cc3O)C(=O)NC(C)C(=O)N(C)C1C(=O)N(C)C1(CC1C)C(=O)OCC(NC(=O)c1nc3ccccc3cc1O)C(=O)NC(C)C(=O)N2C (centres undefined)
Ans. active

Qu. Do the same for `CCN(CC)CCNc1ccc([N+](=O)[O-])c2nc3ccc(OC)cc3c(N)c12` please
Ans. active

Qu. Do the same for C=CCOC1(CC=C)C(=O)OC2C(O)COC21O (centres undefined) please
Ans. inactive

Qu. Do the same for CSc1ccc2c(cc1=O)C(NC(=O)c1ccc(C#N)cc1)CCc1cc(O)c(O)c(O)c1-2 (centres undefined) please
Ans. inactive

Qu. Do the same for CC(=O)OC1COC(n2c(=S)n(-c3ccccc3)c(=O)c3ccccc32)C(OC(C)=O)C1OC(C)=O (centres undefined) please
Ans. inactive

Qu. Do the same for `CCN1CCCn2c(=O)[nH]c3cc(Br)cc1c32` please
Ans. inactive

Qu. Do the same for `O=C1C(Cl)=C(Nc2ccc(OC(F)(F)F)cc2)C(=O)c2c(O)ccc(O)c21` please
Ans. active

Qu. Do the same for CC1(C)OCC(C(O)C2OC(C)(C)OC2C=O)O1 (centres undefined) please
Ans. inactive

Qu. Do the same for Clc1cccc(C2ON=C(c3ccccc3)N2C23CC4CC(CC(C4)C2)C3)c1Cl (centres undefined) please
Ans. inactive

* * *

# Tested on: M14
# assay.notes: NCI tumour cell line growth inhibition, 48 h
Active and inactive are the calls of the source. Rule as the data show it: active = GI50 up to about 1.1 µM and inactive = higher.
Below: a set of entries, each annotated with reported GI50.

Qu. Dear colleague, I am looking for the recorded GI50 of the following compound: `O=C(O)CS(=O)(=O)C(c1ccccc1)c1ccccc1`
Ans. > 100 µM (inactive)

Qu. Do the same for `COc1cc(-c2nnc3n2NC=C(C(=O)O)S3)cc(OC)c1OC` please
Ans. > 81.3 µM (inactive)

Qu. Do the same for `COc1nc(N)c(C#N)c(C#N)c1C#N` please
Ans. > 10 µM (inactive)

Qu. Do the same for `COc1ccc2cc(CNCCCCCCCCCCCCNCc3ccc4cc(OC)ccc4c3)ccc2c1` please
Ans. 17.4 µM (inactive)

Qu. Do the same for CSc1nc(NC2OCC(OC(C)=O)C(OC(C)=O)C2OC(C)=O)c(/N=C(\C)C(C)=O)c(=O)n1C (stereo not drawn) please
Ans. > 100 µM (inactive)

Qu. Do the same for Cc1ccc(C(=O)Nc2ccc(S(=O)(=O)O)c3cc(S(=O)(=O)O)cc(S(=O)(=O)O)c23)cc1NC(=O)c1cccc(NC(=O)Nc2cccc(C(=O)Nc3cc(C(=O)Nc4ccc(S(=O)(=O)O)c5cc(S(=O)(=O)O)cc(S(=O)(=O)O)c45)ccc3C)c2)c1 [SURAMIN] please
Ans. 74.8 µM (inactive)

Others:
Qu. Dear colleague, I am looking for the recorded GI50 of the following compound: COC1OC(C(=O)O)C2OC(C)(C)OC12 (stereo not drawn)
Ans. > 100 µM (inactive)

Qu. Do the same for `C=CCNC(=O)/C=C\C(=O)O` please
Ans. > 100 µM (inactive)

Qu. Do the same for `Cc1ccc2nc3cc(C)c(=O)cc-3sc2c1` please
Ans. > 100 µM (inactive)

Qu. Do the same for C=C(C)/C=C/C(O)[C@](C)(O)[C@H]1[C@H](O)C[C@@]2(C)[C@@H]3CCc4c(cc(OC5OC(CO)C(O)C(O)C5O)c(O)c4C)C3(C)C(=O)C[C@]12C (stereo partly drawn) please
Ans. > 100 µM (inactive)

Qu. Do the same for Cc1ccc(OCC2OC(n3cnc4c(Cl)nc(Nc5cc(Cl)cc(Cl)c5)nc43)CC2Oc2ccc(C)cc2)cc1 (stereo not drawn) please
Ans. > 100 µM (inactive)

Qu. Do the same for `c1ccc2sc(C3(N4CCCCCC4)CCCCC3)cc2c1` please
Ans. 19.3 µM (inactive)

Qu. Do the same for CC(=O)OCC(Br)C1(C)CCC(C(C)(C)Br)O1 (stereo not drawn) please
Ans. 89.7 µM (inactive)

Qu. Do the same for CCC(C)SC1SCC2C(=O)N(C)C3(CC3C)C(=O)OCC(NC(=O)c3nc4ccccc4cc3O)C(=O)NC(C)C(=O)N(C)C1C(=O)N(C)C1(CC1C)C(=O)OCC(NC(=O)c1nc3ccccc3cc1O)C(=O)NC(C)C(=O)N2C (stereo not drawn) please
Ans. 0.000116 µM (active)

Qu. Do the same for `CCCCCNC(=O)c1c(O)[nH]c(=S)[nH]c1=O` please
Ans. > 100 µM (inactive)

Qu. Do the same for `CN(C)c1cccc2c(S(=O)(=O)NCCCNCCN)cccc12` please
Ans. 18.9 µM (inactive)

Qu. Do the same for CCCC1=C(CC)C(C(=O)Nc2c(C)cccc2C)=NC(S)N1 (stereo not drawn) please
Ans. > 100 µM (inactive)

Qu. Do the same for `Cc1c(NC(=O)CSC(=S)N2CCN(Cc3ccccc3)CC2)c(=O)n(-c2ccccc2)n1C` please
Ans. > 100 µM (inactive)
